Kindly supply the reported normalised growth rate inhibition values for the records listed here.
test system: MCF7; experiment: normalised growth rate inhibition (GR value) relative to DMSO control (GR (1 = untreated growth, 0 = cytostasis, <0 = cytotoxic)); higher = less growth inhibition; details: 10 µM; 72 h
Field format: numeric only.

## Input Return normalised growth rate inhibition for the following molecule: COc1cc2c(Oc3ccc(NC(=O)C4(C(=O)Nc5ccc(F)cc5)CC4)cc3F)ccnc2cc1OCCCN1CCOCC1
## Output -0.225

## Input Supply reported normalised growth rate inhibition belonging to this molecule: CN(c1ncccc1CNc1nc(Nc2ccc3c(c2)CC(=O)N3)ncc1C(F)(F)F)S(C)(=O)=O
## Output -0.309

## Input Output normalised growth rate inhibition of O=c1[nH]c2ccccc2n1C1CCN(Cc2ccc(-c3[nH]c4cc5ncnc5cc4nc3-c3ccccc3)cc2)CC1
## Output -0.0151

## Input Hello, please tell me recorded normalised growth rate inhibition for this one: O=C1c2c(O)ccc(O)c2C(=O)c2c(NCCNCCO)ccc(NCCNCCO)c21
## Output -0.59

## Input Read the entry COc1cc(C(=O)N2CCC(N3CCN(C)CC3)CC2)ccc1Nc1ncc2c(n1)N(C)c1ccccc1C(=O)N2C and write its reported normalised growth rate inhibition.
## Output 0.0333

## Input Item NC(=O)Nc1cc(-c2cccc(F)c2)sc1C(=O)N[C@H]1CCCNC1 : provide normalised growth rate inhibition
## Output -0.276

## Input Provide only the value of recorded normalised growth rate inhibition for CC(=O)Nc1nc(C)c(-c2ccc(Cl)c(S(=O)(=O)NCCO)c2)s1
## Output 0.0722

## Input Give a short answer stating reported normalised growth rate inhibition for Cc1cc(Nc2cc(N3CCN(C)CC3)nc(Sc3ccc(NC(=O)C4CC4)cc3)n2)n[nH]1 .
## Output 0.0394

## Input State its normalised growth rate inhibition for this molecule: Cc1cn(-c2cc(NC(=O)c3ccc(C)c(Nc4nccc(-c5cccnc5)n4)c3)cc(C(F)(F)F)c2)cn1
## Output 0.0407

Cited source: the supplement of paper PMC5662764
